# experimental target: T1, calcitonin receptor (receptor binding assay)
# T1 construct: also called rCalcitonin RBA; CT
# method notes: calcitonin receptor binding assay, method not described
Ends that are not written are not given here.
Give measured pIC50 for each item. Keep answers brief.
Recall that pIC50 is obtained by taking minus log10 of the concentration measured in molar.

Bench note: what pIC50 did RVGCGNLSTCQVQNLSHRLWQLMGPAGRQDSAPVDPSSPHSY-NH2 (ends and bridges not checked) [AFP-6 analog SEQ ID NO: 28] show? 8.14

Bench note: what pIC50 did VGCVLGTCQVQNLSHRLWQLRQDSAPVDPSSPHSY-NH2 (ends and bridges not checked) [AFP-6 analog SEQ ID NO: 18] show? 7.62

Bench note: what pIC50 did RVGCVLGTCQVQNLSHRLWQLMGPAGRQDSAPVDPSSPHSY-NH2 (ends and bridges not checked) [AFP-6 analog SEQ ID NO: 10] show? 7.26

Bench note: what pIC50 did GCNTATCQVQNLSHRLWQLRQDSAPVEPSSPHSY-NH2 (ends and bridges not checked) [AFP-6 analog SEQ ID NO: 37] show? 6.92

Bench note: what pIC50 did GCGNLSTCQVQNLSHRLWQLRQDSAPVEPSSPHSY-NH2 (ends and bridges not checked) [AFP-6 analog SEQ ID NO: 39] show? 7.51

Bench note: what pIC50 did VCNTATCQVQNLSHRLWQLRQDSAPVDPSSPHSY-NH2 (ends and bridges not checked) [AFP-6 analog SEQ ID NO: 30] show? 6.89

Bench note: what pIC50 did GCSNLSTCQVQNLSHRLWQLRQDSAPVEPSSPHSY-NH2 (ends and bridges not checked) [AFP-6 analog SEQ ID NO: 38] show? 7.77

Bench note: what pIC50 did TQAQLLRVGCSNLSTCQVQNLSHRLWQLMGPAGRQDSAPVDPSSPHSY-NH2 (ends and bridges not checked) [AFP-6 analog SEQ ID NO: 20] show? 7.80

Bench note: what pIC50 did TQAQLLRVGCVLGTCQVQNLSHRLWQLRQDSAPVDPSSPHSY-NH2 (ends and bridges not checked) [AFP-6 analog SEQ ID NO: 16] show? 7.66

Bench note: what pIC50 did GCNTATCQVQNLSHRLWQLRQDSAPVDPSSPHSY-NH2 (ends and bridges not checked) [AFP-6 analog SEQ ID NO: 31] show? 7.29

Bench note: what pIC50 did CVLGTCQVQNLSHRLWQLMGPAGRQDSAPVDPSSPHSY-NH2 (ends and bridges not checked) [AFP-6 analog SEQ ID NO: 12] show? 6.70

Bench note: what pIC50 did RVGCGNLSTCQVQNLSHRLWQLMGPAGRQDSAPVDPSSPHSY-NH2 (ends and bridges not checked) [AFP-6 analog SEQ ID NO: 22] show? 8.14

Bench note: what pIC50 did VGCVLGTCQVQNLSHRLWQLRQDSAPVEPSSPHSY-NH2 (ends and bridges not checked) [AFP-6 analog SEQ ID NO: 36] show? 6.70

Bench note: what pIC50 did VGCGNLSTCQVQNLSHRLWQLRQDSAPVDPSSPHSY-NH2 (ends and bridges not checked) [AFP-6 analog SEQ ID NO: 29] show? 8.05

Bench note: what pIC50 did GCVLGTCQVQNLSHRLWQLMGPAGRQDSAPVDPSSPHSY-NH2 (ends and bridges not checked) [AFP-6 analog SEQ ID NO: 11] show? 7.57

Bench note: what pIC50 did CVLGTCQVQNLSHRLWQLRQESAPVEPSSPHSY-NH2 (ends and bridges not checked) [AFP-6 analog SEQ ID NO: 19] show? 6.61

Bench note: what pIC50 did VGCVLGTCQVQNLSHRLWQLMGPAGRQDSAPVDPSSPHSY-NH2 (not fully specified; ends and bridges not checked) [Human AFP-6 [8-47]] show? 7.62

Bench note: what pIC50 did VGCVLGTCQVQNLSHRLWQLMGPAGRQDSAPVEPSSPHSY-NH2 (ends and bridges not checked) [AFP-6 analog SEQ ID NO: 35] show? 6.82

Bench note: what pIC50 did TQAQLLRVGCNTATCQVQNLSHRLWQLMGPAGRQDSAPVDPSSPHSY-NH2 (ends and bridges not checked) [AFP-6 analog SEQ ID NO: 21] show? 7.77

Bench note: what pIC50 did TQAQLLRVGCVLGTCQVQNLSHRLWQLMGPAGRQESAPVEPSSPHSY-NH2 (ends and bridges not checked) [AFP-6 analog SEQ ID NO: 32] show? 6.00
